Listed here are compounds together with their documented RF solvent 2.
Assay: Lipid/water partition parameter RM from thin-film chromatography on silica gel
Format: physicochemical
Conditions: Solvent 2: heptane:isopropanol:ethyl acetate:H2O 40:20:50:2; silica gel
Just the number.

Take a look at these entries with their results.
>  <compound>
CCCCCCCCCCCCCCCC(=O)NCCCOC(=O)OCC

>  <RF solvent 2>
0.68

$$$$
>  <compound>
CCCCCCCCCCCCCCCC(=O)NCCOC1CCCCO1 (stereo not shown)

>  <RF solvent 2>
0.65

$$$$
>  <compound>
CCCCCCCCCCCCCCCC(=O)NCCOC(=O)OCC

>  <RF solvent 2>
0.70

$$$$
>  <compound>
CCCCCCCC/C=C\CCCCCCCC(=O)NCCOC(=O)OCC

>  <RF solvent 2>
0.69

$$$$
>  <compound>
O=C(CCCCCCCC(=O)NCCOC1CCCO1)NCCOC1CCCO1 (stereo not shown)

>  <RF solvent 2>
0.44

$$$$
>  <compound>
CCCCCCCCCCCCCCCC(=O)NCCOC(=O)NCC(=O)OCC

>  <RF solvent 2>
0.58

$$$$
>  <compound>
CCCCCCCCCCCCCCCC(=O)NCCOC(=O)OCC(C)C

>  <RF solvent 2>
0.73

$$$$
>  <compound>
CCCCCCCCCCCCCCCC(=O)NCCOC1CCCO1 (stereo not shown)

>  <RF solvent 2>
0.62

$$$$
>  <compound>
O=C(CCCCCCCC(=O)NCCOC1CCCCO1)NCCOC1CCCCO1 (stereo not shown)

>  <RF solvent 2>
0.51

$$$$

Using the record for CCCCCCCCCCCCCCCC(=O)NCCOC(=O)NCc1ccccc1 , report its RF solvent 2.
0.65
